Attribution: ChEMBL document CHEMBL1201861

# Test system: JIYOYE
# ASSAY_TEXT: cells
# Type: functional, cell-based, Homo sapiens
# COND: Homo sapiens, JIYOYE
# Description: SANGER: Inhibition of human JiyoyeP-2003 cell growth in a cell viability assay.
Assignment: determine reported IC50 for the given compounds.
Give bare numbers, in nM.

Record excerpt, results attached:
N[C@@H](CSC(c1ccccc1)(c1ccccc1)c1ccccc1)C(=O)O :: 1700
COc1cccc2c1C(=O)c1c(O)c3c(c(O)c1C2=O)C[C@@](O)(C(=O)CO)C[C@@H]3O[C@H]1C[C@H](N)[C@H](O)[C@H](C)O1 :: 138
COc1cc(-c2nn([C@H]3CC[C@H](N4CCN(C(C)=O)CC4)CC3)c3ncnc(N)c23)ccc1NC(=O)c1cc2ccccc2n1C :: 4210

Consider the record given below.
INPUT: Lab note: need IC50 with JIYOYE for entry COc1cc2ncn(-c3cc(OCc4ccccc4C(F)(F)F)c(C(N)=O)s3)c2cc1OC [GW843682X] , please look it up.
OUTPUT: 148

* * *

Assignment: determine reported pIC50 for the given compounds.
# Test system: TGBC1TKB;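 also: growth inhibition of TGBC1TKB cells, read out by a cell viability assay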
# ASSAY_TEXT: cells
# Type: functional, cell-based, Homo sapiens
# COND: Homo sapiens, TGBC1TKB
# Description: SANGER: Inhibition of human TGBC1TKB cell growth in a cell viability assay.
pIC50: −log10 of the molar value.

Record excerpt, results attached:
COc1cc2ncn(-c3cc(OCc4ccccc4C(F)(F)F)c(C(N)=O)s3)c2cc1OC [GW843682X] :: 7.47
CS(=O)(=O)c1ccc(C(=O)Nc2ccc(Cl)c(-c3ccccn3)c2)c(Cl)c1 [VISMODEGIB] :: < 5.00

INPUT: What does the data say about its pIC50? Entry: CC[C@H](CO)Nc1nc(NCc2ccccc2)c2ncn(C(C)C)c2n1 [SELICICLIB]
OUTPUT: < 4.80

* * *

Assignment: determine reported pIC50 for the given molecules.
# Test system: MOLT-16;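 also: growth inhibition of human MOLT-16 cells, read out with a cell viability assay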
# ASSAY_TEXT: cells
# Type: functional, cell-based, Homo sapiens
# COND: Homo sapiens, MOLT-16
# Description: SANGER: Inhibition of human MOLT-16 cell growth in a cell viability assay.
pIC50: −log10 of the molar value.

Record excerpt, results attached:
CC1(C)CNc2cc(NC(=O)c3cccnc3NCc3ccncc3)ccc21 :: < 5.70
CC(C)CCN1c2nc(Nc3cc(F)c(O)c(F)c3)ncc2N(C)C(=O)C1C (stereo not drawn) :: < 5.30

INPUT: What does the data say about its pIC50? Entry: COc1cc(-c2nn([C@H]3CC[C@H](N4CCN(C(C)=O)CC4)CC3)c3ncnc(N)c23)ccc1NC(=O)c1cc2ccccc2n1C
OUTPUT: < 5.29

* * *

# Tested on: MHH-NB-11
# ASSAY_TEXT: cells
# Assay type: functional, cell-based, Homo sapiens
# COND: Homo sapiens, MHH-NB-11
# Description: SANGER: Inhibition of human MHH-NB-11 cell growth in a cell viability assay.
pIC50: −log10 of the molar value.
Assignment: determine reported pIC50 for the given compounds.

Record excerpt, results attached:
CC(C)CCN1c2nc(Nc3cc(F)c(O)c(F)c3)ncc2N(C)C(=O)C1C (stereo unspecified) :: < 5.30
CS(=O)(=O)c1ccc(C(=O)Nc2ccc(Cl)c(-c3ccccn3)c2)c(Cl)c1 :: < 5.00
CCC/C=C/C=C/C(=O)O[C@H]1/C(=C/C(=O)OC)C[C@H]2C[C@H]([C@@H](C)O)OC(=O)C[C@H](O)C[C@@H]3C[C@H](OC(C)=O)C(C)(C)[C@](O)(C[C@@H]4C/C(=C/C(=O)OC)C[C@H](/C=C/C(C)(C)[C@]1(O)O2)O4)O3 :: < 8.10
COc1cc2c(Nc3ccc(NC(=O)c4ccccc4)cc3)ncnc2cc1OCCCN1CCOCC1 :: < 5.40
CC[C@H](CO)Nc1nc(NCc2ccccc2)c2ncn(C(C)C)c2n1 :: < 4.80

INPUT: Lab note: need pIC50 with MHH-NB-11 for entry Cn1cnc2c(F)c(Nc3ccc(Br)cc3Cl)c(C(=O)NOCCO)cc21 , please look it up.
OUTPUT: < 5.40

* * *

Assignment: determine reported pIC50 for the given compounds.
# Tested on: NCI-H209;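 also: growth inhibition of human NCI-H209 cells, measured by a cell viability assay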
# ASSAY_TEXT: cells
# Type: functional, cell-based, Homo sapiens
# COND: Homo sapiens, NCI-H209
# Description: SANGER: Inhibition of human NCI-H209 cell growth in a cell viability assay.
pIC50: −log10 of the molar value.

Record excerpt, results attached:
Nc1cccc2c1CN(C1CCC(=O)NC1=O)C2=O (stereo not drawn) [LENALIDOMIDE] :: < 5.30
O=C(O)c1ccc(-c2c[nH]c3ncc(-c4ccccc4)cc23)cc1C1CCCC1 :: < 4.80

INPUT: What does the data say about its pIC50? Entry: COc1cc2ncn(-c3cc(OCc4ccccc4S(C)(=O)=O)c(C#N)s3)c2cc1OC [GSK-319347A]
OUTPUT: < 5.30

* * *

Assignment: determine reported IC50 for the given compounds.
# System: GI-ME-N
# ASSAY_TEXT: cells
# Format: functional, cell-based, Homo sapiens
# COND: Homo sapiens, GI-ME-N
# Description: SANGER: Inhibition of human GI-ME-N cell growth in a cell viability assay.

O=C(O)c1ccc(-c2c[nH]c3ncc(-c4ccccc4)cc23)cc1C1CCCC1 :: > 16000 nM

Each compound below has a recorded value; state its IC50.
1. Cc1cn(-c2cc(NC(=O)c3ccc(C)c(Nc4nccc(-c5cccnc5)n4)c3)cc(C(F)(F)F)c2)cn1
2. CCN(CC)CCCCNc1ncc2cc(-c3cc(OC)cc(OC)c3)c(NC(=O)NC(C)(C)C)nc2n1

OUTPUT:
["> 2000 nM", "> 2000 nM"]

* * *

Assignment: determine reported IC50 for the given compounds.
# Test system: ALL-PO
# ASSAY_TEXT: cells
# Assay type: functional, cell-based, Homo sapiens
# COND: Homo sapiens, ALL-PO
# Description: SANGER: Inhibition of human ALL-PO cell growth in a cell viability assay.

Cc1ccc(-c2c(C(=O)CCl)n(CCCO)c3ncnc(N)c23)cc1 :: > 4 µM
COc1cc(-c2nn([C@H]3CC[C@H](N4CCN(C(C)=O)CC4)CC3)c3ncnc(N)c23)ccc1NC(=O)c1cc2ccccc2n1C :: > 5.12 µM
Nc1cccc2c1CN(C1CCC(=O)NC1=O)C2=O (centres undefined) [LENALIDOMIDE] :: > 5 µM

INPUT: What does the data say about its IC50? Entry: CC[C@H](CO)Nc1nc(NCc2ccccc2)c2ncn(C(C)C)c2n1
OUTPUT: > 16 µM

* * *

# System: NCI-H2405
# ASSAY_TEXT: cells
# Assay type: functional, cell-based, Homo sapiens
# COND: Homo sapiens, NCI-H2405
# Description: SANGER: Inhibition of human NCI-H2405 cell growth in a cell viability assay.
Assignment: determine reported IC50 for the given molecules.

O=C(O)c1ccc(-c2c[nH]c3ncc(-c4ccccc4)cc23)cc1C1CCCC1 :: > 16000 nM
Cc1cn(-c2cc(NC(=O)c3ccc(C)c(Nc4nccc(-c5cccnc5)n4)c3)cc(C(F)(F)F)c2)cn1 :: > 2000 nM

Consider the record given below.
INPUT: What does the data say about its IC50? Entry: CO[C@H]1C[C@@H]2CC[C@@H](C)[C@@](O)(O2)C(=O)C(=O)N2CCCC[C@H]2C(=O)O[C@H]([C@H](C)C[C@@H]2CC[C@@H](OC(=O)C(C)(CO)CO)[C@H](OC)C2)CC(=O)[C@H](C)/C=C(\C)[C@@H](O)[C@@H](OC)C(=O)[C@H](C)C[C@H](C)/C=C/C=C/C=C/1C
OUTPUT: > 200 nM

* * *

# Test system: KM-H2
# ASSAY_TEXT: cells
# Type: functional, cell-based, Homo sapiens
# COND: Homo sapiens, KM-H2
# Description: SANGER: Inhibition of human KM-H2 cell growth in a cell viability assay.
METRIC_NAME: IC50

Record excerpt, results attached:
CCC/C=C/C=C/C(=O)O[C@H]1/C(=C/C(=O)OC)C[C@H]2C[C@H]([C@@H](C)O)OC(=O)C[C@H](O)C[C@@H]3C[C@H](OC(C)=O)C(C)(C)[C@](O)(C[C@@H]4C/C(=C/C(=O)OC)C[C@H](/C=C/C(C)(C)[C@]1(O)O2)O4)O3 :: > 0.008 µM
CC(=O)O[C@H]1C(=O)[C@@]2(C)[C@H]([C@H](OC(=O)c3ccccc3)[C@]3(O)C[C@H](OC(=O)[C@H](O)[C@@H](NC(=O)c4ccccc4)c4ccccc4)C(C)=C1C3(C)C)[C@]1(OC(C)=O)CO[C@@H]1C[C@@H]2O :: 0.0331 µM
O=C(O)c1ccc(-c2c[nH]c3ncc(-c4ccccc4)cc23)cc1C1CCCC1 :: > 16 µM
Oc1ccc2ccccc2c1SSc1c(O)ccc2ccccc12 :: > 32 µM
Cc1ccc(-c2c(C(=O)CCl)n(CCCO)c3ncnc(N)c23)cc1 :: > 4 µM

Consider the record given below.
INPUT: What does the data say about its IC50? Entry: COc1cc2ncn(-c3cc(OCc4ccccc4S(C)(=O)=O)c(C#N)s3)c2cc1OC [GSK-319347A]
OUTPUT: > 5 µM

* * *

# System: MG-63
# ASSAY_TEXT: cells
# Assay type: functional, cell-based, Homo sapiens
# COND: Homo sapiens, MG-63
# Description: SANGER: Inhibition of human MG-63 cell growth in a cell viability assay.
METRIC_NAME: IC50

O=C(O)c1ccc(-c2c[nH]c3ncc(-c4ccccc4)cc23)cc1C1CCCC1 :: > 16 µM
COc1cc2c(Nc3ccc(NC(=O)c4ccccc4)cc3)ncnc2cc1OCCCN1CCOCC1 :: > 4 µM
N#Cc1c(O)c2c(-c3ccc(-c4ccccc4O)cc3)csc2[nH]c1=O :: > 1.02 µM

Consider the record given below.
INPUT: What does the data say about its IC50? Entry: Oc1ccc2ccccc2c1SSc1c(O)ccc2ccccc12
OUTPUT: > 32 µM
